TESTED_SYSTEM: T1, RBFOX1 RRM (Homo sapiens, UniProt Q9NWB1 109-208)
T1 sequence: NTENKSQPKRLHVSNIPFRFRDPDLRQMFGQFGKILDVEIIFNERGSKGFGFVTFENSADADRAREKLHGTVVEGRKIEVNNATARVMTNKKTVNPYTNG
MEASUREMENT_DESCRIPTION: EMSA; HiTS-Eq, 1 nM pool, 10 min; buffer printed only for the single-RNA assays: 10 mM Tris pH 7.5, 150 mM NaCl, 3.4 mM EDTA, 0.001% NP-40, 30 C
STATED_CONDITIONS: tags: His6 N-terminal (pET28a); label: 5' 32P
The full ranking holds about 16,000 sequences; the median of “ka relative to ugcaugu” is about 0.0091, and the highest 2% start at about 0.032. The entries come from a sample that favours the highest values as a whole.
PROPERTY_MEASURED: binding signal

BINDER	PROPERTY_MEASURED	READOUT_VALUE
UGAAAUG (DNA:RNA) RNA: GGGAGACCGGAAUUCAGAUUGUCCUGAAAUGUUAAAUCCCGUCGUAGCCACCA DNA 1: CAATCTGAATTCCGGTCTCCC DNA 2: TGGTGGCTACGACGGGATT	binding signal	0.0128 KA relative to UGCAUGU
UGUGCCG (DNA:RNA) RNA: GGGAGACCGGAAUUCAGAUUGUCCUGUGCCGUUAAAUCCCGUCGUAGCCACCA DNA 1: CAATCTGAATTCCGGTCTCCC DNA 2: TGGTGGCTACGACGGGATT	binding signal	0.0199 KA relative to UGCAUGU
UGGUGCC (DNA:RNA) RNA: GGGAGACCGGAAUUCAGAUUGUCCUGGUGCCUUAAAUCCCGUCGUAGCCACCA DNA 1: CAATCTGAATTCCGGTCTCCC DNA 2: TGGTGGCTACGACGGGATT	binding signal	0.0219 KA relative to UGCAUGU
UGAAUGU (DNA:RNA) RNA: GGGAGACCGGAAUUCAGAUUGUCCUGAAUGUUUAAAUCCCGUCGUAGCCACCA DNA 1: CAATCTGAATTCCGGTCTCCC DNA 2: TGGTGGCTACGACGGGATT	binding signal	0.0386 KA relative to UGCAUGU
UGUUGCC (DNA:RNA) RNA: GGGAGACCGGAAUUCAGAUUGUCCUGUUGCCUUAAAUCCCGUCGUAGCCACCA DNA 1: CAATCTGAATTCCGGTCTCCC DNA 2: TGGTGGCTACGACGGGATT	binding signal	0.0243 KA relative to UGCAUGU

Items follow; give binding signal for each.
1. GUCCUGG (DNA:RNA) RNA: GGGAGACCGGAAUUCAGAUUGUCCGUCCUGGUUAAAUCCCGUCGUAGCCACCA DNA 1: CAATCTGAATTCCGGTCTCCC DNA 2: TGGTGGCTACGACGGGATT
2. UGAUUGU (DNA:RNA) RNA: GGGAGACCGGAAUUCAGAUUGUCCUGAUUGUUUAAAUCCCGUCGUAGCCACCA DNA 1: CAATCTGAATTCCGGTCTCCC DNA 2: TGGTGGCTACGACGGGATT

0.0183 KA relative to UGCAUGU
0.0253 KA relative to UGCAUGU

Items follow; give binding signal for each.
1. CUGAAUG (DNA:RNA) RNA: GGGAGACCGGAAUUCAGAUUGUCCCUGAAUGUUAAAUCCCGUCGUAGCCACCA DNA 1: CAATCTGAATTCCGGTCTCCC DNA 2: TGGTGGCTACGACGGGATT
2. GUGCCUG (DNA:RNA) RNA: GGGAGACCGGAAUUCAGAUUGUCCGUGCCUGUUAAAUCCCGUCGUAGCCACCA DNA 1: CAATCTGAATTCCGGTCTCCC DNA 2: TGGTGGCTACGACGGGATT

1. 0.0348 KA relative to UGCAUGU
2. 0.0397 KA relative to UGCAUGU
